# assay system: T1, 4H3587-AA
# T1 chain: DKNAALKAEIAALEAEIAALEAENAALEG
# assay procedure: two-hybrid library CCmax;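 also: natural log of median RNA to DNA barcode read ratio; higher means stronger binding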
# assay setup: mean of both orientations
Rule: interaction score below 0.8 gives Criterion met. Equal to or above 0.8 gives Criterion not met.

Ask: # strict comparison: is reported interaction score < 0.8? input = DENAALEAKIAALKAKIAALKAEIAALEG [4H1385-AA]
Result: Criterion not met

Ask: What about this binder? DENAALEAKIAALKAKIAALKAKNAALKG [4H1392-AA]
Result: Criterion not met

Ask: What about this binder? DKIAALKAKIAALKAEIAALEAKNAALKG [4H2888-AA]
Result: Criterion not met

Ask: What about this binder? DEIAALEAKIAALKAENAALEAEIAALEG [4H337-AA]
Result: Criterion met

Ask: What about this binder? DENAALEAKIAALKAEIAALEAKIAALKG [4H1350-AA]
Result: Criterion not met

Ask: What about this binder? DENAALEAEIAALEAKIAALKAKIAALKG [4H1070-AA]
Result: Criterion not met

Ask: What about this binder? DKIAALKAENAALEAKIAALKAKNAALKG [4H2736-AA]
Result: Criterion met

Ask: What about this binder? DKIAALKAEIAALEAKNAALKAKIAALKG [4H2622-AA]
Result: Criterion met

Ask: What about this binder? DKIAALKAENAALEAENAALEAEIAALEG [4H2705-AA]
Result: Criterion met

Ask: What about this binder? DENAALEAENAALEAKIAALKAEIAALEG [4H1193-AA]
Result: Criterion met

Numbers sourced from paper PMC10397247.
